system: 276233-004-R-J1-PDC KRAS spheroids with HUVEC/MSC, viability; assay: Anticancer human tumor 276233-004-R-J1-PDC patient-derived colon adenocarcinoma cell line growth inhibition [KRAS2]; conditions: second compound 10 µM; first compound 0.316 µM; active compounds read low;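 note: cells exposed to agents for seven days before viability read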
Threshold 60%: viability, T/C strictly smaller gives True, otherwise False.

>  <compound>
Cn1nccc1Nc1nccc(-c2cc3c(s2)C(C)(C)N(CCN2CCOCC2)C3=O)n1 + CNCc1ccccc1-c1csc(C(C)Nc2nc(C)nc3cc(OC)c(OC)cc23)c1

>  <target.of.assay>
276233-004-R-J1-PDC KRAS spheroids with HUVEC/MSC, viability;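 note: cells exposed to agents for seven days before viability read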

>  <assigned.category>
True

$$$$
>  <compound>
CC1(C)CCC(CN2CCN(c3ccc(C(=O)NS(=O)(=O)c4ccc(NCC5CCOCC5)c([N+](=O)[O-])c4)c(Oc4cnc5[nH]ccc5c4)c3)CC2)=C(c2ccc(Cl)cc2)C1 + CC1OCC2(CCN(c3cnc(Sc4ccnc(N)c4Cl)c(N)n3)CC2)C1N

>  <target.of.assay>
276233-004-R-J1-PDC KRAS spheroids with HUVEC/MSC, viability;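 note: cells exposed to agents for seven days before viability read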

>  <assigned.category>
False

$$$$
>  <compound>
COc1cc(Nc2ncc3c(n2)-c2ccc(Cl)cc2C(c2c(F)cccc2OC)=NC3)ccc1C(=O)O + C=CC(=O)N1CCN(c2nc(=O)n(-c3c(C)ccnc3C(C)C)c3nc(-c4c(O)cccc4F)c(F)cc23)C(C)C1

>  <target.of.assay>
276233-004-R-J1-PDC KRAS spheroids with HUVEC/MSC, viability;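 note: cells exposed to agents for seven days before viability read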

>  <assigned.category>
False

$$$$
>  <compound>
CC1COCCN1c1cc(-c2ccnn2C)c2ccnc(-c3ccn[nH]3)c2n1 (stereo not given) + CNCc1ccccc1-c1csc(C(C)Nc2nc(C)nc3cc(OC)c(OC)cc23)c1

>  <target.of.assay>
276233-004-R-J1-PDC KRAS spheroids with HUVEC/MSC, viability;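 note: cells exposed to agents for seven days before viability read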

>  <assigned.category>
True

$$$$
